target: PRMT5 (Homo sapiens); construct: purchased Viva (custom protein); assay: PRMT5 IC50 assay with no cofactor; type: biochemical
Sequence (O14744 whole entry): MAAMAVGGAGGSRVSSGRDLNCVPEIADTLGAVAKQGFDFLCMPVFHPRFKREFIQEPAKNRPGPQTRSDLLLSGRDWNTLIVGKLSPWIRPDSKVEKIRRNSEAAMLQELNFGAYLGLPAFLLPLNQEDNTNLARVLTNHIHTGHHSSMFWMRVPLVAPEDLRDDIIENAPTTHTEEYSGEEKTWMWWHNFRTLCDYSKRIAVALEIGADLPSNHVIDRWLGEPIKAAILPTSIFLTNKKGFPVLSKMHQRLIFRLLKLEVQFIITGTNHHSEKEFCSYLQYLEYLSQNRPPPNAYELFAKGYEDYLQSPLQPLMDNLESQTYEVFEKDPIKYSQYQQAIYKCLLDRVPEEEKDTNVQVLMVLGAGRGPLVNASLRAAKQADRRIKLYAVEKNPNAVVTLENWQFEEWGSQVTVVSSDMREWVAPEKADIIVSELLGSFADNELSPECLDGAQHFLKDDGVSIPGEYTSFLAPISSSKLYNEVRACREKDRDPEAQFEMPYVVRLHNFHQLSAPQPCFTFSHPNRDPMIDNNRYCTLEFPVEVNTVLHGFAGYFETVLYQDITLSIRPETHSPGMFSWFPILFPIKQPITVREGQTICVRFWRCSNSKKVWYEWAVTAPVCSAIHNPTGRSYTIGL
Sequence (Q9BQA1 whole entry partner): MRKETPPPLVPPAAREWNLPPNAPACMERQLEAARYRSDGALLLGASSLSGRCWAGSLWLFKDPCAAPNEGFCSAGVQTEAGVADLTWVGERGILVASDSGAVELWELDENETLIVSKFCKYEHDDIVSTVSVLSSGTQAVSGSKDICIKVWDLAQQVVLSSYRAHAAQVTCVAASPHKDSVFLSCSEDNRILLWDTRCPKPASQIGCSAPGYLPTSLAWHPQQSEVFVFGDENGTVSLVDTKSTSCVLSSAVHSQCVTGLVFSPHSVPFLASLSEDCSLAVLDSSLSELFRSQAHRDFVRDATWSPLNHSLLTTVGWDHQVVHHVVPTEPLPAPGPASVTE
This listing pairs compounds with measured IC50.

// worked examples, IC50 included
SMILES REPR	STUDY SYSTEM	IC50
Cc1c(OCc2cnco2)ccc2c1CCN(C[C@@H](O)CNC(=O)c1ccnc(NC3CN(C(=O)C4CC4)C3)c1)C2	PRMT5 (Homo sapiens)	0.5 to 5 µM
CCN(C)c1cc(C(=O)NC[C@H](O)CN2CCc3cc(OCc4cnco4)ccc3C2)cc(NC2CCC2)n1	PRMT5 (Homo sapiens)	≥ 5 µM
CC(=O)N1CCC(Nc2cccc(C(=O)NC[C@H](O)CN3CCc4cc(OCc5cnco5)ccc4C3)c2)CC1	PRMT5 (Homo sapiens)	0.5 to 5 µM

Now look at this entry.
Ask: Query IC50 on PRMT5 (Homo sapiens) for Cc1ncoc1COc1ccc2c(c1)CCN(C[C@@H](O)CNC(=O)c1cc(NC3CCC3)nc(N3CCN(C(=O)C(C)C)CC3)c1)C2
Reply: 0.5 to 5 µM

Reference source: patent US11986471B2
